The values you see were collected from patent US20190352297A1.

Biological target: Aurora A kinase domain (Homo sapiens)
Sequence (O14965 122-403): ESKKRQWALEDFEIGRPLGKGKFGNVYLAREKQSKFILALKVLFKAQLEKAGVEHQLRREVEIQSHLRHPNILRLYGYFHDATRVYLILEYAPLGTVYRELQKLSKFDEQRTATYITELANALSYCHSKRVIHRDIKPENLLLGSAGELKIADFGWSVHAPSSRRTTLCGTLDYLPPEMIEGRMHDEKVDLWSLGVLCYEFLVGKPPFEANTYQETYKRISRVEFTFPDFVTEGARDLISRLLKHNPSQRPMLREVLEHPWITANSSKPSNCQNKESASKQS
pIC50: −log10 of the molar value.
experimental.readout: pIC50

>>> df
                                   compound  observed_result
0  CCc1ccc(N=C2SC(Cc3ccnc(Nc4ccc(C(=O)O)cn4)c3)C(=O)N2C)cc1 (racemic)             7.62
